Ref: patent US20240317780A1

- target_or_system: SST2 (Homo sapiens)
- Construct: expressed in transfected cells; host or cells: CHO (Chinese hamster ovary) cells
- Sequence (P30874 whole entry, species assumed): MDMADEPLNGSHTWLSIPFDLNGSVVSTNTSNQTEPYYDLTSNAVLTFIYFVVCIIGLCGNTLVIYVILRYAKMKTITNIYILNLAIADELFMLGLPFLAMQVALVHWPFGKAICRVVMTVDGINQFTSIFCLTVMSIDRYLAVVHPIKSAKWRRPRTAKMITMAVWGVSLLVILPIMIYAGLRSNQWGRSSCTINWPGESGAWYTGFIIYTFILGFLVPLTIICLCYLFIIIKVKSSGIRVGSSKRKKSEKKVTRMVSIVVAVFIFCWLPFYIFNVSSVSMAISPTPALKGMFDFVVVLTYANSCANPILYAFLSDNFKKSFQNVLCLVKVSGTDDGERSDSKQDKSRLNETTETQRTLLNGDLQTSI
- experiment_notes: Determination of IC50: competitive binding against [125I]TOC on SST2-transfected CHO cells
- run_conditions: [125I]TOC reference radioligand, 60 min room temperature
I'd be grateful if you could share measured pIC50 for these entries.
Answers are plain numbers, as −log10 of the molar value.

• C[C@@H](O)[C@H](NC(=O)C1CSSCC(NC(=O)C(Cc2ccccc2)NC(=O)CNC(=O)CNC(=O)CNC(=O)C(CC(=O)O)NC(=O)[C@@H](CC(=O)O)NC(=O)C(CNC(=O)C[N+](C)(C)Cc2ccc([Si](F)(C(C)(C)C)C(C)(C)C)cc2)NC(=O)CN2CCN(CC(=O)O)CCN(CC(=O)O)CCN(CC(=O)O)CC2)C(=O)N[C@@H](Cc2ccc(O)cc2)C(=O)NC(Cc2c[nH]c3ccccc23)C(=O)N[C@@H](CCCCN)C(=O)N[C@@H]([C@@H](C)O)C(=O)N1)C(=O)O (some centres unmarked) (natGa complex, metal not drawn) [[Ga]44] = 8.26

Pending molecule:
input: Requested read-out: pIC50. Entry: C[C@@H](O)[C@H](NC(=O)C1CSSCC(NC(=O)C(Cc2ccccc2)NC(=O)CNC(=O)CNC(=O)[C@@H](CC(=O)O)NC(=O)C(CC(=O)O)NC(=O)[C@@H](CNC(=O)CC[C@H](C(=O)O)N2CCN(CC(=O)O)CCN(CC(=O)O)CCN(CC(=O)O)CC2)NC(=O)C(CN)NC(=O)c2ccc([Si](F)(C(C)(C)C)C(C)(C)C)cc2)C(=O)N[C@@H](Cc2ccc(O)cc2)C(=O)NC(Cc2c[nH]c3ccccc23)C(=O)N[C@@H](CCCCN)C(=O)N[C@@H]([C@@H](C)O)C(=O)N1)C(=O)O (some centres unmarked) (natLu complex, metal not drawn) [[Lu]20]
output: 7.96

* * *

SST2 (Homo sapiens) data, read-out pIC50
Answers are plain numbers, as −log10 of the molar value.

Study these solved cases before continuing.
• C[C@@H](O)[C@H](NC(=O)C1CSSCC(NC(=O)C(Cc2ccccc2)NC(=O)[C@@H](CC(N)=O)NC(=O)C(CC(N)=O)NC(=O)[C@@H](CC(=O)O)NC(=O)C(CC(=O)O)NC(=O)[C@@H](CNC(=O)CN2CCN(CC(=O)O)CCN(CC(=O)O)CCN(CC(=O)O)CC2)NC(=O)C(CN)NC(=O)c2ccc([Si](F)(C(C)(C)C)C(C)(C)C)cc2)C(=O)N[C@@H](Cc2ccc(O)cc2)C(=O)NC(Cc2c[nH]c3ccccc23)C(=O)N[C@@H](CCCCN)C(=O)N[C@@H]([C@@H](C)O)C(=O)N1)C(=O)O (stereo partly shown) (natGa complex, metal not drawn) [[Ga]42] = 8.27
• C[C@@H](O)[C@H](NC(=O)C1CSSCC(NC(=O)C(Cc2ccccc2)NC(=O)CNC(=O)CNC(=O)[C@@H](CCCN)NC(=O)C(CCCN)NC(=O)[C@@H](CNC(=O)CC[C@H](C(=O)O)N2CCN(CC(=O)O)CCN(CC(=O)O)CCN(CC(=O)O)CC2)NC(=O)C(CN)NC(=O)c2ccc([Si](F)(C(C)(C)C)C(C)(C)C)cc2)C(=O)N[C@@H](Cc2ccc(O)cc2)C(=O)NC(Cc2c[nH]c3ccccc23)C(=O)N[C@@H](CCCCN)C(=O)N[C@@H]([C@@H](C)O)C(=O)N1)C(=O)O (stereo partly shown) (natGa complex, metal not drawn) [[Ga]37] = 8.33

Provide pIC50 for all items below, preserving their order.
1. C[C@@H](O)[C@H](NC(=O)C1CSSCC(NC(=O)C(Cc2ccccc2)NC(=O)CNC(=O)CNC(=O)[C@@H](CC(=O)O)NC(=O)C(CC(=O)O)NC(=O)[C@@H](CNC(=O)CN2CCN(CC(=O)O)CCN(CC(=O)O)CCN(CC(=O)O)CC2)NC(=O)C(CN)NC(=O)c2ccc([Si](F)(C(C)(C)C)C(C)(C)C)cc2)C(=O)N[C@@H](Cc2ccc(O)cc2)C(=O)NC(Cc2c[nH]c3ccccc23)C(=O)N[C@@H](CCCCN)C(=O)N[C@@H]([C@@H](C)O)C(=O)N1)C(=O)O (stereo partly shown) (natLu complex, metal not drawn) [[Lu]19]
2. C[C@@H](O)[C@H](NC(=O)C1CSSCC(NC(=O)C(Cc2ccccc2)NC(=O)CNC(=O)CNC(=O)CNC(=O)C(CC(=O)O)NC(=O)[C@@H](CC(=O)O)NC(=O)C(CNC(=O)CN2CCN(CC(=O)O)CCN(CC(=O)O)CCN(CC(=O)O)CC2)NC(=O)[C@@H](CN)NC(=O)CNC(=O)C[N+](C)(C)Cc2ccc([Si](F)(C(C)(C)C)C(C)(C)C)cc2)C(=O)N[C@@H](Cc2ccc(O)cc2)C(=O)NC(Cc2c[nH]c3ccccc23)C(=O)N[C@@H](CCCCN)C(=O)N[C@@H]([C@@H](C)O)C(=O)N1)C(=O)O (stereo partly shown) (natLu complex, metal not drawn) [[Lu]52]

output:
1: 7.88; 2: 8.45

* * *

- experiment_notes: Biodistribution of 18F-labeled SST2 ligands in AR42J tumor-bearing mice
- Assay type: in vivo
- run_conditions: female, CD1 nu/nu, mouse, liver, iv, total radioactivity, 1 h post injection, tail vein; read-out: Liver % ID/g ± SD
I'd appreciate it if you could supply tissue uptake at 1 h values for the items below.
Reply with the number, then its unit.

- C[C@@H](O)[C@H](NC(=O)C1CSSCC(NC(=O)C(Cc2ccccc2)NC(=O)CNC(=O)CNC(=O)CNC(=O)C(CC(=O)O)NC(=O)[C@@H](CC(=O)O)NC(=O)C(CNC(=O)CN2CCN(CC(=O)O)CCN(CC(=O)O)CCN(CC(=O)O)CC2)NC(=O)C[N+](C)(C)Cc2ccc([Si](F)(C(C)(C)C)C(C)(C)C)cc2)C(=O)N[C@@H](Cc2ccc(O)cc2)C(=O)NC(Cc2c[nH]c3ccccc23)C(=O)N[C@@H](CCCCN)C(=O)N[C@@H]([C@@H](C)O)C(=O)N1)C(=O)O (some centres unmarked) (natGa complex, metal not drawn) [[Ga]50]: 1.22 %ID/g

input: Which tissue uptake at 1 h reading was recorded for the molecule C[C@@H](O)[C@H](NC(=O)C1CSSCC(NC(=O)C(Cc2ccccc2)NC(=O)CNC(=O)CNC(=O)[C@@H](CC(=O)O)NC(=O)C(CC(=O)O)NC(=O)[C@@H](CNC(=O)CN2CCN(CC(=O)O)CCN(CC(=O)O)CCN(CC(=O)O)CC2)NC(=O)C[N+](C)(C)Cc2ccc([Si](F)(C(C)(C)C)C(C)(C)C)cc2)C(=O)N[C@@H](Cc2ccc(O)cc2)C(=O)NC(Cc2c[nH]c3ccccc23)C(=O)N[C@@H](CCCCN)C(=O)N[C@@H]([C@@H](C)O)C(=O)N1)C(=O)O (some centres unmarked) (natGa complex, metal not drawn) [[Ga]24] ?
output: 1.05 %ID/g

* * *

Consider the following molecules; for each one, report its tissue uptake at 1 h.
- experiment_notes: Biodistribution of 18F-labeled SST2 ligands in AR42J tumor-bearing mice
- Assay type: in vivo
- run_conditions: female, CD1 nu/nu, mouse, kidneys, iv, total radioactivity, 1 h post injection, tail vein; read-out: Kidneys % ID/g ± SD
Answers are plain numbers, in %ID/g.

Record excerpt, results attached:
• C[C@@H](O)[C@H](NC(=O)C1CSSCC(NC(=O)C(Cc2ccccc2)NC(=O)CNC(=O)CNC(=O)CNC(=O)C(CC(=O)O)NC(=O)[C@@H](CC(=O)O)NC(=O)C(CCCCN)NC(=O)[C@@H](CNC(=O)C[N+](C)(C)Cc2ccc([Si](F)(C(C)(C)C)C(C)(C)C)cc2)NC(=O)CN2CCN(CC(=O)O)CCN(CC(=O)O)CCN(CC(=O)O)CC2)C(=O)N[C@@H](Cc2ccc(O)cc2)C(=O)NC(Cc2c[nH]c3ccccc23)C(=O)N[C@@H](CCCCN)C(=O)N[C@@H]([C@@H](C)O)C(=O)N1)C(=O)O (stereo partly drawn) (natGa complex, metal not drawn) [[Ga]45] = 72.7
• C[C@@H](O)[C@H](NC(=O)C1CSSCC(NC(=O)C(Cc2ccccc2)NC(=O)CNC(=O)CNC(=O)CNC(=O)C(CC(=O)O)NC(=O)[C@@H](CC(=O)O)NC(=O)C(CCCNC(N)=O)NC(=O)[C@@H](CNC(=O)C[N+](C)(C)Cc2ccc([Si](F)(C(C)(C)C)C(C)(C)C)cc2)NC(=O)CN2CCN(CC(=O)O)CCN(CC(=O)O)CCN(CC(=O)O)CC2)C(=O)N[C@@H](Cc2ccc(O)cc2)C(=O)NC(Cc2c[nH]c3ccccc23)C(=O)N[C@@H](CCCCN)C(=O)N[C@@H]([C@@H](C)O)C(=O)N1)C(=O)O (stereo partly drawn) (natGa complex, metal not drawn) [[Ga]46] = 12.6

input: Looking for the measured tissue uptake at 1 h of C[C@@H](O)[C@H](NC(=O)C1CSSCC(NC(=O)C(Cc2ccccc2)NC(=O)CNC(=O)CNC(=O)[C@@H](CC(=O)O)NC(=O)C(CC(=O)O)NC(=O)[C@@H](CNC(=O)CN2CCN(CC(=O)O)CCN(CC(=O)O)CCN(CC(=O)O)CC2)NC(=O)C[N+](C)(C)Cc2ccc([Si](F)(C(C)(C)C)C(C)(C)C)cc2)C(=O)N[C@@H](Cc2ccc(O)cc2)C(=O)NC(Cc2c[nH]c3ccccc23)C(=O)N[C@@H](CCCCN)C(=O)N[C@@H]([C@@H](C)O)C(=O)N1)C(=O)O (stereo partly drawn) (natGa complex, metal not drawn) [[Ga]24] , can you help?
output: 13.6
